Reported values: pKi for E3 ubiquitin-protein ligase Mdm2 (Homo sapiens, UniProt Q00987), one per item.
Hey, just a heads up that pKi is the negative log base 10 of the concentration in molar.

Some entries whose results are on file:
Molecule	System Under Test	pKi
O=C(c1ccc(Cl)cc1)C(Cc1cccc(Cl)c1)C(=O)c1cc(F)ccc1F (stereo not given)	E3 ubiquitin-protein ligase Mdm2 (Homo sapiens, UniProt Q00987)	5.22
Cc1cccc(CC(C(=O)c2ccc(Cl)cc2)C(=O)c2cc(F)ccc2F)c1 (stereo not given)	E3 ubiquitin-protein ligase Mdm2 (Homo sapiens, UniProt Q00987)	4.65
COc1cccc(CC(C(=O)c2ccc(Cl)cc2)C(=O)c2cc(F)ccc2F)c1 (stereo not given)	E3 ubiquitin-protein ligase Mdm2 (Homo sapiens, UniProt Q00987)	4.84
O=C(c1ccc(Cl)cc1)C(Nc1cccc(Cl)c1)c1ccc(F)cc1Cl (stereo not given)	E3 ubiquitin-protein ligase Mdm2 (Homo sapiens, UniProt Q00987)	5.16

Alright, here's another molecule for you.
# lookup: pKi of O=C(c1ccc(Cl)cc1)C(Nc1ccc(F)cc1)c1ccc(F)cc1Cl (stereo not given) 5.13

* * *

Consider compounds characterized by their log10 of Ki with E3 ubiquitin-protein ligase Mdm2 (Homo sapiens).
Sequence (Q00987 whole entry): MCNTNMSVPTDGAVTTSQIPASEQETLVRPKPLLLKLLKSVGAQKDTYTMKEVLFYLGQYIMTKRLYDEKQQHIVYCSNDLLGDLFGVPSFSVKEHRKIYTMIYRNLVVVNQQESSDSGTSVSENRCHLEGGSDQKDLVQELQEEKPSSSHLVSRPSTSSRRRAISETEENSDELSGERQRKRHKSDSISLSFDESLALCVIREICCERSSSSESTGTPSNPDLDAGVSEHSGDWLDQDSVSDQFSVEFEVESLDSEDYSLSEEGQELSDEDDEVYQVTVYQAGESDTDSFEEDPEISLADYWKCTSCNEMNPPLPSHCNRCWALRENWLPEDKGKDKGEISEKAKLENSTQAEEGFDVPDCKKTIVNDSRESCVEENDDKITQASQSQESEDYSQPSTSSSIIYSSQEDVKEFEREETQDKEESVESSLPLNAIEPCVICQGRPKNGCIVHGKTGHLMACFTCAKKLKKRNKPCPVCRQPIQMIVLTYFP
Heads up: the numbers are on a log10 scale; they represent Ki in nM.

Compound	log10 of Ki
O=C(c1ccc(Cl)cc1)C(Nc1cc(F)cc(F)c1)c1ccc(Cl)cc1F (stereo unspecified)	3.39
COC(=O)c1ccc(NC(=O)CCC(=O)N(c2ccc(Cl)cc2)C(C(=O)c2ccc(Cl)cc2)c2ccc(F)cc2Cl)cc1 (stereo unspecified)	2.98
O=C(c1ccccc1)C(Cc1ccccc1)C(=O)c1ccccc1	4.41
O=C(c1ccc(Cl)cc1)C(Nc1ccc(Cl)cc1)c1ccc(F)c(Cl)c1 (stereo unspecified)	4.38
O=C(c1ccc(Cl)cc1)C(Nc1ccccc1)c1ccccc1 (stereo unspecified)	4.26

Lab note: need log10 of Ki with E3 ubiquitin-protein ligase Mdm2 (Homo sapiens) for entry O=C(c1ccc(Cl)cc1)C(Cc1cc(Cl)cc(Cl)c1)C(=O)c1cc(F)ccc1F (stereo unspecified) , please look it up. 3.89

Field: log10 of Ki (E3 ubiquitin-protein ligase Mdm2 (Homo sapiens)). Entry: CC(=O)N1CCN(C(=O)CCC(=O)N(c2ccc(Cl)cc2)C(C(=O)c2ccc(Cl)cc2)c2ccc(F)cc2Cl)CC1 (stereo unspecified) 2.54

For E3 ubiquitin-protein ligase Mdm2 (Homo sapiens), provide log10 of Ki of COC(=O)CCCCC(=O)N(c1ccc(Cl)cc1)C(C(=O)c1ccc(Cl)cc1)c1ccc(F)cc1Cl (stereo unspecified) please. 2.91

Recorded log10 of Ki for COc1ccc(S(=O)(=O)N(c2ccc(Cl)cc2)C(C(=O)c2ccc(Cl)cc2)c2ccc(F)cc2Cl)cc1 (stereo unspecified) with E3 ubiquitin-protein ligase Mdm2 (Homo sapiens), please? 2.81

Form field - read-out: log10 of Ki; system: E3 ubiquitin-protein ligase Mdm2 (Homo sapiens); submitted item: COC(=O)CCCC(=O)N(c1ccc(Cl)cc1)C(C(=O)c1ccc(Cl)cc1)c1ccc(F)cc1Cl (stereo unspecified) 3.06

So what log10 of Ki did COC(=O)CCC(=O)N(c1ccc(Cl)cc1)C(C(=O)c1ccc(Cl)cc1)c1ccc(F)cc1Cl (stereo unspecified) get with E3 ubiquitin-protein ligase Mdm2 (Homo sapiens)? 3.14
